From: ChEMBL document CHEMBL1944523

- target-entity: Peroxisome proliferator-activated receptor gamma (Homo sapiens)
- method: Partial agonist activity at human PPARgamma LBD assessed as activation of CBP1-453 by HTRF assay
- Type: functional
Labelling field: enter true if recorded EC50 is less than 0.01 µM. Enter false if it equals or exceeds that cut-off.

{"mol-smiles": "C[C@@H](Oc1cc(Cn2c(=O)n(-c3ccc(C(C)(C)C)cc3)c3ccc(C(F)(F)F)cc32)ccc1Cl)C(=O)O", "group": "false"}

We next turn to a different molecule, shown below.
**Q:** Is it true that EC50 reported for COc1ccc2c(-n3c(=O)n(Cc4cc(O[C@H](C)C(=O)O)ccc4Cl)c4ccccc43)noc2c1 is less than 0.01 µM?
**A:** false

---

- method: AUC in db/db C57BLKS/J-m +/+ Leprdb mouse at 30 mg/kg, po qd for 10 days measured on day 11
- Type: ADME, organism-based
- Parameters: dose 30 mg/kg, route oral
- stated-conditions: plasma
experimental-readout: AUC at 240 h (µM·h)
Number in µM·h, nothing else.

**Q:** Look up AUC at 240 h for this molecule: COc1ccc2c(-n3c(=O)n(Cc4cccc([C@@]5(C)OC(=O)NC5=O)c4)c4ccccc43)noc2c1
**A:** 450

---

- target-entity: Peroxisome proliferator-activated receptor gamma (Homo sapiens, UniProt P37231)
- Sequence (P37231 whole entry, the tested form may be a part): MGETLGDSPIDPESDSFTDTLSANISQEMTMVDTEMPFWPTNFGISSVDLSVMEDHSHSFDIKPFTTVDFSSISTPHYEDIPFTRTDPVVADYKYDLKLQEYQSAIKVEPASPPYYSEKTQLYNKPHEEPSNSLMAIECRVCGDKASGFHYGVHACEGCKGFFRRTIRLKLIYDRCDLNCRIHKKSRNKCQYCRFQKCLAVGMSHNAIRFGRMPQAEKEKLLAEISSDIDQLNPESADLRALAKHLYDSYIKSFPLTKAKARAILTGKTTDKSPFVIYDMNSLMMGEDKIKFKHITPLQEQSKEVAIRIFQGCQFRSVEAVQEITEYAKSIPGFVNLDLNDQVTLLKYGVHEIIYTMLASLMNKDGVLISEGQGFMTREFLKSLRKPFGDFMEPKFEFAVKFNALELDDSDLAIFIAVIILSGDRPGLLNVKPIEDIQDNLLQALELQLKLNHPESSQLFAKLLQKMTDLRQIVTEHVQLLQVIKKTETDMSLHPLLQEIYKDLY
- method: Partial agonist activity at human PPARgamma LBD assessed as activation of PGC1 by HTRF assay
- Format: functional
A collection of compounds and their measured pEC50
The quantity pEC50 is defined as the negative base-10 logarithm of the molar concentration.

Example cases with answers are listed next.
{"mol-smiles": "Cc1c(C(=O)c2ccc(Cl)cc2)c2ccc(OC(F)(F)F)cc2n1Cc1cccc(O[C@@H](C(=O)O)C(C)C)c1", "pEC50": 8.30}
{"mol-smiles": "COc1ccc2c(-n3c(=O)n(Cc4cc([C@@]5(C)OC(=O)NC5=O)ccc4Cl)c4ccccc43)noc2c1", "pEC50": 8.70}
{"mol-smiles": "C[C@@H](Oc1cc(Cn2c(=O)n(-c3noc4cc(Cl)ccc34)c3ccc(C(F)(F)F)cc32)ccc1Cl)C(=O)O", "pEC50": 5.49}
{"mol-smiles": "Cc1c(C(=O)c2ccc(Cl)cc2)c2ccc(OC(F)(F)F)cc2n1Cc1cccc(O[C@H](C)C(=O)O)c1", "pEC50": 8.30}
{"mol-smiles": "COc1ccc2c(-n3c(=O)n(Cc4cc(O[C@H](C)C(=O)O)ccc4Cl)c4ccccc43)noc2c1", "pEC50": 8.10}

**Q:** Look up pEC50 for this compound: C[C@@H](Oc1cc(Cn2c(=O)n(-c3ccc(C(C)(C)C)cc3)c3ccc(C(F)(F)F)cc32)ccc1Cl)C(=O)O
**A:** 6.34

**Q:** Next record, please: CN(CCOc1ccc(C[C@H](OCC(F)(F)F)C(=O)O)cc1)c1nc2ccccc2o1
**A:** 9.00

**Q:** Next record, please: COc1ccc2c(-n3c(=O)n(Cc4ccc(Cl)c(O[C@H](C)C(=O)O)c4)c4ccccc43)noc2c1
**A:** 8.70

---

A collection of compounds and their measured clearance
- Test system: Rattus norvegicus
- method: Plasma clearance in rat at 0.5 mg/kg, iv and 2 mg/kg, po by LC-MS/MS analysis
- Format: ADME, organism-based
- stated-conditions: in vivo
Number in mL/min/kg, nothing else.

**Q:** Look up clearance for this compound: COc1ccc2c(-n3c(=O)n(Cc4cc([C@@]5(C)OC(=O)NC5=O)ccc4Cl)c4ccccc43)noc2c1
**A:** 29.7

**Q:** Next record, please: COc1ccc2c(-n3c(=O)n(Cc4cc(O[C@H](C)C(=O)O)ccc4Cl)c4ccccc43)noc2c1
**A:** 7.3

**Q:** Next record, please: COc1ccc2c(-n3c(=O)n(Cc4cccc([C@@]5(C)OC(=O)NC5=O)c4)c4ccccc43)noc2c1
**A:** 5.5

**Q:** Next record, please: C[C@]1(c2cccc(Cn3c(=O)n(-c4noc5cc(Cl)ccc45)c4ccccc43)c2)OC(O)=NC1=O
**A:** 26.5

**Q:** Next record, please: COc1ccc2c(-n3c(=O)n(Cc4ccc(Cl)c(O[C@H](C)C(=O)O)c4)c4ccccc43)noc2c1
**A:** 11.4
